Biological target: Gal4-RORγ-LBD (Homo sapiens, UniProt P51449)
Construct: expressed in transfected cells
Experiment: Gal4-RORγ Luciferase Reporter Assay in HEK-293T Cells
Format: cell-based
Conditions: HEK-293 cells, luciferase reporter, with ursolic acid
property-measured: EC50

# annotated cases, reported EC50 shown
Cn1cnc(S(=O)(=O)N2C[C@H](CCC(=O)O)Oc3ccc(/C=C/c4c(F)cccc4Cl)cc32)c1Cl [Example 89DZ] :: > 10 µM
COC(=O)CC[C@H]1CN(S(=O)(=O)c2cccc(C(F)(F)F)c2)c2cc(/C=C(\C)c3c(C)noc3C)ccc2O1 [Example 86AD] :: 0.5 to 5 µM
O=C(O)CC[C@H]1CN(S(=O)(=O)c2cccc(C(F)(F)F)c2)c2cc(C=C3CCC(O)CC3)ccc2O1 (stereo partly shown) [Example 94] :: 0.5 to 5 µM
O=C(O)CC[C@H]1CN(S(=O)(=O)c2cc(C(F)(F)F)cnc2OCCO)c2cc(/C=C3\CC4CCC3C4)ccc2O1 (stereo partly shown) [Example 95T] :: 0.5 to 5 µM

Q: Give its EC50 value. Item: CCOc1ncc(C(F)(F)F)cc1S(=O)(=O)N1C[C@H](CCC(=O)O)Oc2ccc(/C=C/c3c(Cl)cccc3C(F)F)cc21 [Example 89EJ]
Result: < 0.5 µM

Q: Give its EC50 value. Item: COC(=O)CC[C@H]1CN(S(=O)(=O)c2cccc(C(C)(F)F)c2)c2cc(/C=C/c3c(Cl)cccc3C(F)(F)F)ccc2O1 [Example 83]
Result: 0.5 to 5 µM

Q: Give its EC50 value. Item: COC(=O)CC[C@H]1CN(S(=O)(=O)c2cccc(C(F)(F)F)c2)c2cc(/C=C(\C)c3ccccc3)ccc2O1 [Example 86AB]
Result: 0.5 to 5 µM

====

Some molecules, each annotated with its measured EC50.
Target: Gal4-RORγ-LBD (Homo sapiens)
Construct: expressed in transfected cells
Experiment: Gal4-RORγ Luciferase Reporter Assay in HEK-293T Cells
Format: cell-based
Settings: HEK-293 cells, luciferase reporter, with ursolic acid

Cc1cccnc1/C=C/c1ccc2c(c1)N(S(=O)(=O)c1cccc(C(F)(F)F)c1)C[C@H](CCC(=O)O)O2 [Example 89BJ] :: 500 to 5000 nM

Q: Give its EC50 value. Item: CCc1nc(S(=O)(=O)N2C[C@H](CCC(=O)O)Oc3ccc(/C=C/c4c(F)cccc4Cl)cc32)c[nH]1 [Example 89DW]
Result: > 10000 nM

Q: Give its EC50 value. Item: COC(=O)CC[C@H]1CN(S(=O)(=O)c2cccc(C(F)(F)F)c2)c2cc(/C=C/c3cccc(Cl)c3)ccc2O1 [Example 89DI]
Result: > 10000 nM

Q: Give its EC50 value. Item: CCOc1ncc(C(F)(F)F)cc1S(=O)(=O)N1C[C@H](CCC(=O)OC)Oc2ccc(/C=C/c3c(F)cccc3Cl)cc21 [Example 89DV]
Result: 500 to 5000 nM

Q: Give its EC50 value. Item: COC(=O)CC[C@H]1CN(S(=O)(=O)c2cc(F)cc(C(F)(F)F)c2)c2cc(/C=C(\C)c3c(F)cccc3Cl)ccc2O1 [Example 86AR]
Result: 500 to 5000 nM

Q: Give its EC50 value. Item: COC(=O)CC[C@H]1CN(S(=O)(=O)c2cccc(OC(F)F)c2)c2cc(/C=C(\C)c3c(F)cccc3Cl)c(C)cc2O1 [Example 53]
Result: 500 to 5000 nM

Q: Give its EC50 value. Item: CCOc1nn(CC)cc1S(=O)(=O)N1C[C@H](CCC(=O)O)Oc2ccc(/C=C(\C)c3c(F)cccc3Cl)cc21 [Example 86I]
Result: 500 to 5000 nM

Q: Give its EC50 value. Item: O=C(O)CC[C@H]1CN(S(=O)(=O)c2cccc(OC(F)F)c2)c2cc(/C=C/c3c(Cl)cccc3C(F)(F)F)ccc2O1 [Example 89DQ]
Result: < 500 nM

Q: Give its EC50 value. Item: COC(=O)CC[C@H]1CN(S(=O)(=O)c2cccc(C(F)(F)F)c2)c2cc(/C=C/c3c(Cl)cccc3OC)ccc2O1 [Example 89EZ]
Result: < 500 nM

Q: Give its EC50 value. Item: O=C(O)CC[C@H]1CN(S(=O)(=O)c2cccc(OC(F)F)c2)c2cc(/C=C/c3c(Cl)cccc3Cl)ccc2O1 [Example 89CT]
Result: < 500 nM

Q: Give its EC50 value. Item: O=C(O)CC[C@H]1CN(S(=O)(=O)c2cc(C(F)(F)F)cnc2OCCO)c2cc(/C=C3/CCCOC3)ccc2O1 [Example 95Y]
Result: 500 to 5000 nM

Q: Give its EC50 value. Item: C/C(=C\c1ccc2c(c1)N(S(=O)(=O)c1cncc(C(F)(F)F)c1)C[C@H](CCC(=O)O)O2)c1c(F)cccc1Cl [Example 75]
Result: 500 to 5000 nM

Q: Give its EC50 value. Item: C/C(=C\c1cc2c(cc1Cl)O[C@@H](CCC(=O)O)CN2S(=O)(=O)c1cccc(C(F)(F)F)c1)c1c(F)cccc1Cl [Example 46]
Result: < 500 nM

Q: Give its EC50 value. Item: Cc1ccc(F)c(/C=C/c2ccc3c(c2)N(S(=O)(=O)c2cccc(C(F)(F)F)c2)C[C@H](CCC(=O)O)O3)c1 [Example 89CA]
Result: > 10000 nM

Q: Give its EC50 value. Item: COc1cc(S(=O)(=O)N2CCCc3ccc(OCc4c(F)cccc4C(F)(F)F)cc32)ccc1F [Example 25R]
Result: < 500 nM

Q: Give its EC50 value. Item: Cc1ccc(F)c(/C=C/c2ccc3c(c2)N(S(=O)(=O)c2cccc(C(F)(F)F)c2)C[C@H](CCC(=O)O)O3)n1 [Example 89CG]
Result: 5000 to 10000 nM

Q: Give its EC50 value. Item: C/C(=C\c1ccc2c(c1)N(S(=O)(=O)c1cccc(C(F)(F)F)c1)C[C@H]([C@H](C)O)O2)c1c(F)cccc1Cl [Example 96]
Result: < 500 nM

Q: Give its EC50 value. Item: COC(=O)CC[C@H]1CN(S(=O)(=O)c2cncc(C(F)(F)F)c2)c2cc(/C=C(\C)c3c(F)cccc3Cl)ccc2O1 [Example 74]
Result: 500 to 5000 nM

====

Some compounds, each annotated with its measured EC50.
Biological target: Gal4-RORγ-LBD (Homo sapiens)
Construct: expressed in transfected cells
Sequence (P51449 269-508 limits assumed): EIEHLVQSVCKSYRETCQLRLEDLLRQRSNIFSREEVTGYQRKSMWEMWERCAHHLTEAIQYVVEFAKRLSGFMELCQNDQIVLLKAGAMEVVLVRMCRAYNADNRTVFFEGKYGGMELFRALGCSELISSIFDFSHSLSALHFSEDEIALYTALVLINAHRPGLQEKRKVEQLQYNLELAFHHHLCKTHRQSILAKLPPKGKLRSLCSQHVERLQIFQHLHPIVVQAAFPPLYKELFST
Assay: Gal4-RORγ Luciferase Reporter Assay in HEK-293T Cells
Format: cell-based
Conditions: HEK-293 cells, ursolic acid present, luciferase readout

C/C(=C\c1ccc2c(c1)N(S(=O)(=O)c1cccc(C(F)(F)F)c1)C[C@H](CCC(=O)N(C)CCC(=O)O)O2)c1c(F)cccc1Cl [Example 129Q] :: < 500 nM
O=C(O)CC[C@H]1CN(S(=O)(=O)c2cccc(C(F)(F)F)c2)c2cc(C3=CCCCC3)ccc2O1 :: < 500 nM
C/C(=C\c1ccc2c(c1)N(S(=O)(=O)c1cccc(C(F)(F)F)c1)C[C@H](CNC(=O)N1CCC(C(=O)O)CC1)O2)c1c(F)cccc1Cl [Example 116O] :: < 500 nM
C/C(=C\c1ccc2c(c1)N(S(=O)(=O)c1cccc(C(F)(F)F)c1)CC(C(=O)O)C2)c1c(F)cccc1Cl (stereo not shown) :: 500 to 5000 nM
C/C(=C\c1ccc2c(c1)N(S(=O)(=O)c1cccc(C(F)(F)F)c1)C[C@H](CCC#N)O2)c1c(F)cccc1Cl :: < 500 nM
CC/C(=C\c1ccc2c(c1)N(S(=O)(=O)c1cccc(C(F)(F)F)c1)C[C@H](CCC(=O)O)O2)C(C)C [Example 191G] :: < 500 nM
C/C(=C\c1ccc2c(c1)N(S(=O)(=O)c1cccc(C(F)(F)F)c1)C[C@H](CNC(=O)N(C)CCC(=O)O)O2)c1c(F)cccc1Cl [Example 116P] :: < 500 nM
CCOC(=O)C1Cc2ccc(CCc3c(F)cccc3Cl)cc2N(S(=O)(=O)c2cccc(C(F)(F)F)c2)C1 (stereo not shown) :: < 500 nM
C[C@H]1CN(S(=O)(=O)c2cccc(C(F)(F)F)c2)c2cc(COc3c(F)cccc3Cl)ccc2O1 :: 5000 to 10000 nM
O=C(O)CCC[C@H]1CN(S(=O)(=O)c2cccc(C(F)(F)F)c2)c2cc(/C=C/c3c(F)cccc3Cl)ccc2O1 [Example 195D] :: < 500 nM

Q: Give its EC50 value. Item: `N#CCC[C@H]1CN(S(=O)(=O)c2cccc(C(F)(F)F)c2)c2cc(CCc3c(F)cccc3Cl)ccc2O1`
Result: < 500 nM

Q: Give its EC50 value. Item: `O=C(O)CC[C@H]1CN(S(=O)(=O)c2cccc(C(F)(F)F)c2)c2cc(C3=CCCC3)ccc2O1`
Result: 500 to 5000 nM

Q: Give its EC50 value. Item: `O=C(O)C[C@H]1CN(S(=O)(=O)c2cccc(C(F)(F)F)c2)c2cc(COc3c(F)cccc3Cl)ccc2O1`
Result: 500 to 5000 nM
